target: Potassium voltage-gated channel subfamily KQT member 2 (Rattus norvegicus) (UniProt O88943); experiment: Agonist activity at rat Kv7.2 channel expressed in CHO cells assessed as shift of half voltage of maximal activation at 10 uM by whole cell patch clamp based electrophysiological method; conditions: filed as agonist
Sequence (O88943 whole entry): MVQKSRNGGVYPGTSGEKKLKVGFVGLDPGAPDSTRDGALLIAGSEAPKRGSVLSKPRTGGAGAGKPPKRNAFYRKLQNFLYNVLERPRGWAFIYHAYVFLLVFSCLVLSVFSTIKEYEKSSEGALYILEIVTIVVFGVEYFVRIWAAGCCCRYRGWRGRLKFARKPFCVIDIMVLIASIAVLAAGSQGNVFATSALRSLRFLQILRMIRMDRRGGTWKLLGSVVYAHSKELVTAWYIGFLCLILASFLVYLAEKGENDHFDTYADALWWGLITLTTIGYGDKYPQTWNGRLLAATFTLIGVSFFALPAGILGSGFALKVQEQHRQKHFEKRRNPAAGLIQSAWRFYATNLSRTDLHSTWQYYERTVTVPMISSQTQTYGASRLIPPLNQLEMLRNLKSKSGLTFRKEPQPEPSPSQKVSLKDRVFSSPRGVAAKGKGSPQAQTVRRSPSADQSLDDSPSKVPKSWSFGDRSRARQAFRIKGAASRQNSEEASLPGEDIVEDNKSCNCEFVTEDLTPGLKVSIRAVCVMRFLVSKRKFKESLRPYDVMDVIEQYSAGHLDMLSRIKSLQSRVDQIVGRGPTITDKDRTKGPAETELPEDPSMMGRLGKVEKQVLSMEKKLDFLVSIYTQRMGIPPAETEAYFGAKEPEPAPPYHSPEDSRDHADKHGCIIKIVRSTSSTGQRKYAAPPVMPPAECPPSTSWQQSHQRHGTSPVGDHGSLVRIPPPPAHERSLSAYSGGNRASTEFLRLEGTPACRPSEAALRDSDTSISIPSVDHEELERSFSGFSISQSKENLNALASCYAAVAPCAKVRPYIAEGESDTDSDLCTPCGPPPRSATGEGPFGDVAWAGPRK
metric.name: Activity (mV)
Form entry: value (mV) — number only.

>>> reported_value("C#CCN(Cc1ccc(F)cc1)c1ccc(NC(=O)OC)c(Cl)c1")
-7.06
>>> reported_value("C#CCN(Cc1ccc(F)cc1)c1ccc(NC(=O)OCC2COC(C)(C)O2)cc1 (stereo not drawn)")
-3.95
>>> reported_value("C#CCN(Cc1ccc(F)cc1)c1ccc(NC(=O)OC)c(OC(F)(F)F)c1")
-13.2
>>> reported_value("C#CCN(Cc1ccc(F)cc1)c1ccc(NC(=O)OCC(C)C)cc1")
-14.3
>>> reported_value("C#CCN(Cc1ccc(F)cc1)c1ccc(NC(=O)OC)cc1Cl")
-2.06

Any idea what Activity was measured for C#CCN(Cc1ccc(F)cc1)c1ccc(NC(=O)OC)c(C(F)(F)F)c1 ?
-10.4

Dear colleague, I am looking for the recorded Activity of the following molecule: C#CCN(Cc1ccc(F)cc1)c1ccc(NC(=O)OCC=C)cc1
-14.5

I'd like to know its Activity. The molecule in question is C#CCN(Cc1cccc(F)c1)c1ccc(NC(=O)OC)cc1
-21.1

Requested read-out: Activity. Entry: C#CCN(Cc1ccc(C)cc1)c1ccc(NC(=O)OC)cc1
-5.77

Field request: Activity | item: C#CCN(Cc1ccc(F)cc1)c1ccc(NC(=O)OC)c(C)c1
-23.3

# get_value(readout='Activity', item= C#CCN(Cc1ccc(F)cc1)c1ccc(F)c(NC(=O)OC)c1 )
-18.7

Quick one: Activity for C#CCN(Cc1ccc(F)cc1)c1ccc(NC(=O)OCc2ccccc2)cc1 ?
-11.5

Name the recorded Activity for C#CCN(Cc1ccc(F)cc1)c1ccc(NC(=O)OC)cc1C#N .
-9.62

Reported Activity, molecule C#CCN(Cc1ccc(F)cc1)c1ccc(NC(C)=O)cc1 : ____
-6.09

What does the data say about its Activity? Entry: C#CCN(Cc1ccc(F)cc1)c1ccc(NC(=O)OC)c(C#N)c1
-5.1

Entry C#CCN(Cc1ccc(F)cc1)c1c(C)cc(NC(=O)OC)cc1C : reported Activity = ?
13.5

# input molecule: C#CCN(Cc1ccc(F)cc1)c1ccc(NC(=O)OCC)cc1 ; wanted: its Activity
-7.26

# input molecule: C#CCN(Cc1ccc(F)cc1)c1ccc(NC(=O)OC)cc1C ; wanted: its Activity
-3.42

Look at this molecule and give its reported Activity. C#CCN(Cc1ccc(F)cc1)c1ccc(NC(=O)OC)cc1F
-9.06

Reported Activity for C#CCN(Cc1ccccc1F)c1ccc(NC(=O)OC)cc1 : what is it?
-7.6

What does the data say about its Activity? Entry: C#CCN(Cc1ccc(F)cc1)c1cccc(NC(=O)OC)c1
3.6

Which measured Activity value corresponds to C#CCN(Cc1ccc(F)cc1)c1ccc(NC(=O)OC(C)(C)C)cc1 ?
-19.4

Given the molecule C#CCN(Cc1ccc(F)cc1)c1ccc(NC(=O)OCC)c(N)c1 , what is its reported Activity?
-47.9

###

target: Potassium voltage-gated channel subfamily KQT member 2 (Rattus norvegicus) (UniProt O88943); assay: Agonist activity at rat Kv7.2 channel expressed in CHO cells assessed as amplitude change of outward current at 10 uM by whole cell patch clamp based electrophysiological method; conditions: filed as agonist
Recorded Activity by entry
Answer with a number only.

>>> reported_value("C#CCN(Cc1ccc(C)cc1)c1ccc(NC(=O)OC)cc1")
1.05

Given the compound C#CCN(Cc1ccc(F)cc1)c1ccc(NC(=O)OCC)c(N)c1 , what is its reported Activity?
1.53

Which Activity is reported for this compound? C#CCN(Cc1ccc(F)cc1)c1ccc(NC(=O)OCC(C)C)cc1
1.23

Please give the measured Activity for this compound: C#CCN(Cc1ccc(F)cc1)c1cc(C)c(NC(=O)OC)c(C)c1
4.75

Would you kindly share the measured Activity for CCOC(=O)Nc1ccc(NCc2ccc(F)cc2)cc1N [EZOGABINE] ?
1.79

Requested read-out: Activity. Entry: C#CCN(Cc1ccc(F)cc1)c1ccc(F)c(NC(=O)OC)c1
2.75

Item C#CCN(Cc1ccc(F)cc1)c1ccc(NC(=O)OC)c(F)c1 has what recorded Activity?
2.09

Data request, read-out Activity, for C#CCN(Cc1ccc(F)cc1)c1cccc(NC(=O)OC)c1
1.65

Could you tell me which Activity is on file for C#CCN(Cc1ccc(F)c(C(F)(F)F)c1)c1ccc(NC(=O)OC)cc1 ?
1.33

# input compound: C#CCN(Cc1ccc(F)cc1)c1ccc(NC(=O)OC)c(C(F)(F)F)c1 ; wanted: its Activity
1.42

I would be grateful if you could share the reported Activity for C#CCN(Cc1cccc(OC)c1)c1ccc(NC(=O)OC)cc1 .
2.72

Recorded Activity of C#CCN(Cc1cccc(F)c1)c1ccc(NC(=O)OC)cc1 , please.
2.33

###

molecular target: CYP2C9 (Homo sapiens, UniProt P11712); assay: Inhibition of human liver microsome CYP2C9 at 0.10 to 50 uM preincubated with NADPH for 0.5 hrs followed by substrate addition by LC-MS/MS method relative to control; type: ADME; conditions: liver microsomes, dose 0.1-50 µM
Sequence (P11712 whole entry): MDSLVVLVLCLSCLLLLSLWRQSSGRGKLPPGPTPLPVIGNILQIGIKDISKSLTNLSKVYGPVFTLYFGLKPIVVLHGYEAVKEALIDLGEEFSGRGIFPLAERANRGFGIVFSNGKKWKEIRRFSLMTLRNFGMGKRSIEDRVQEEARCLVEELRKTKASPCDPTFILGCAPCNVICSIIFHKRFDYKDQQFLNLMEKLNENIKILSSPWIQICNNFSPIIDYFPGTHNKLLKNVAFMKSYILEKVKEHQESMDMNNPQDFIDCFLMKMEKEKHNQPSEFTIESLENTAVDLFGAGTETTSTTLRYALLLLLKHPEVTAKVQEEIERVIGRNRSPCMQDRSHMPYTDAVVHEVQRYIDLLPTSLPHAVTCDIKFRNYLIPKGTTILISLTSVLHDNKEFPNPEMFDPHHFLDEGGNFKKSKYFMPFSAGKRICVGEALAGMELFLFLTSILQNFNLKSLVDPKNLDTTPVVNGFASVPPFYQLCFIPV
metric.name: inhibition at 0.5 h, up to 50 µM

If you can, please state the reported inhibition at 0.5 h, up to 50 µM value of C#CCN(Cc1ccc(F)cc1)c1cc(C)c(NC(=O)OC)c(C)c1 .
< 25%

###

experiment: Half life in Kunming mouse plasma at 2 mg/kg, iv measured upto 24 hrs by LC-MS/MS method; type: ADME, organism-based
metric.name: half-life (min)
Hi! Could you send only the number? It should be in min, unit omitted.

Which measured half-life value corresponds to C#CCN(Cc1ccc(F)cc1)c1cc(C)c(NC(=O)OC)c(C)c1 ?
48

###

test: Cmax in Sprague-Dawley rat at 2 mg/kg, po measured upto 24 hrs by LC-MS/MS method; assay type: ADME, organism-based; parameters: time < 24 hrs, dose 2 mg/kg, route po; details: in vivo
metric.name: Cmax (ng/mL)
Give a bare numeral; the unit ng/mL is implied.

Item under review: C#CCN(Cc1ccc(F)cc1)c1cc(C)c(NC(=O)OC)c(C)c1 . Reported Cmax?
88.2

###

assay: AUC(0 to t) in Sprague-Dawley rat at 6 mg/kg, po measured upto 24 hrs by LC-MS/MS method; type: ADME, organism-based; set-up: dose 6 mg/kg, time < 24 hrs, route po; settings: in vivo
metric.name: AUC(0-t) at 24 h

Recorded AUC(0-t) at 24 h of C#CCN(Cc1ccc(F)cc1)c1cc(C)c(NC(=O)OC)c(C)c1 , please.
1130 ng·h/mL

###

assay: Cmax in Kunming mouse brain at 5 mg/kg, po measured upto 24 hrs by LC-MS/MS method; type: ADME, organism-based; parameters: dose 5 mg/kg, time < 24 hrs, route po
metric.name: Cmax (ng/mL)
Respond numerically; units are ng/mL and should not be typed.

Reported Cmax, compound C#CCN(Cc1ccc(F)cc1)c1cc(C)c(NC(=O)OC)c(C)c1 : ____
263

###

test: Neurotoxicity in po dosed Kunming mouse assessed as motor impairment after 1 hr by rotarod test; type: toxicity, organism-based; conditions: Kunming, in vivo
metric.name: TD50 at 1 h (mg/kg)
Expressed in mg/kg, but write only the number.

Report TD50 at 1 h for CCOC(=O)Nc1ccc(NCc2ccc(F)cc2)cc1N [EZOGABINE] please.
188

###

test: Cmax in Sprague-Dawley rat at 6 mg/kg, po measured upto 24 hrs by LC-MS/MS method; format: ADME, organism-based; design: time < 24 hrs, dose 6 mg/kg, route po; details: in vivo
metric.name: Cmax (µg/mL)
Quick reminder: number only, in µg/mL, skip the unit.

Which Cmax value belongs to C#CCN(Cc1ccc(F)cc1)c1cc(C)c(NC(=O)OC)c(C)c1 ?
0.264

###

molecular target: UniProt P10632; test: Inhibition of human liver microsome CYP2C8 at 0.10 to 50 uM preincubated with NADPH for 0.5 hrs followed by substrate addition by LC-MS/MS method relative to control; format: ADME; settings: liver microsomes, dose 0.1-50 µM
Sequence (P10632 whole entry): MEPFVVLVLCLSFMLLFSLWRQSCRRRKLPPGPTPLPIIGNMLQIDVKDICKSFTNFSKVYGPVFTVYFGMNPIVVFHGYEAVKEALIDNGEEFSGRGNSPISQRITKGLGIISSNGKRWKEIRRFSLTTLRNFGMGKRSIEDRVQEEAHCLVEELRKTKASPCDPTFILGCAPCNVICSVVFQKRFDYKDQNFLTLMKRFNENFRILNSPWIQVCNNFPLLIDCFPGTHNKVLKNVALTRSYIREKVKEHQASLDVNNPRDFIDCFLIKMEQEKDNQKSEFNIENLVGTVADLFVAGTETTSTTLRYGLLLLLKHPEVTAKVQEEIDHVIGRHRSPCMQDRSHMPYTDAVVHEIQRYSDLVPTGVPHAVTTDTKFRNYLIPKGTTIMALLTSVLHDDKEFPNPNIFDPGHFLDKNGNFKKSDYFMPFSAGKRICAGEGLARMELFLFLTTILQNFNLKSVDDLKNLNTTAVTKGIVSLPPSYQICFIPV
metric.name: inhibition at 0.5 h, up to 50 µM

Which inhibition at 0.5 h, up to 50 µM is reported for this compound? C#CCN(Cc1ccc(F)cc1)c1cc(C)c(NC(=O)OC)c(C)c1
< 25%

###

experiment: Cmax in Sprague-Dawley rat blood at 6 mg/kg, po measured upto 24 hrs by LC-MS/MS method; assay type: ADME, organism-based; set-up: time < 24 hrs, dose 6 mg/kg, route po
metric.name: Cmax
The number alone won't do; follow it with the unit.

For C#CCN(Cc1ccc(F)cc1)c1cc(C)c(NC(=O)OC)c(C)c1 , what is its reported Cmax?
162 ng/mL
